# Procedure text: protein stability index of a GFP-peptide fusion (GPS, HEK-293T) (PSI 1-6); higher = more stable;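 also: 24-mer peptide tiles fused after GFP, lentivirally expressed, FACS-sorted into six equal bins by GFP/DsRed ratio, decoded by Illumina sequencing, PSI is the read-weighted mean bin number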
# Experimental conditions: treatment: DMSO; c terminus: a fixed tail appended
Measurement name: protein stability index
Reply with the value as a number alone.

Ask | So what does the record say about protein stability index for KKNHEEEMKEFSSQLAGQVNVEMD [KRT15] ?
Reply | 5.6

Ask | Same for SRNAADKERAAGGGAGSSEDDAQS [GOLPH3]
Reply | 5.63

Ask | Same for ILESSQTLLSVLKREAGNLTKATA [SSNA1]
Reply | 2.69

Ask | Same for GLAKCNGLSHSHDLSMDGLFGTIA [RIPK4]
Reply | 2.47

Ask | Same for GLSQGLVDREKGLSAEPGWQAKRE [CHGA]
Reply | 4.92

Ask | Same for CAFLLLRLLVGLALATLRVLRGLA [TMEM175]
Reply | 3.56

Ask | Same for LDSEKPKKLRFHPKQLYFSARQGE [EHMT1]
Reply | 3.2

Ask | Same for ASAAARLGCNRQSWCLKRYDLEYW [TRIM14]
Reply | 2.29

Ask | Same for EGLRELQRSRRLCHEDVEALAAIY [DAPK3]
Reply | 2.72

Ask | Same for CGRAFSRKSLLVVHQRTHTGEKPH [ZNF649]
Reply | 2.69

Ask | Same for CEKTFNRKDHLKNHLQTHDPNKMA [PLAGL1]
Reply | 4.31

Ask | Same for MEEDKLLSAVPEEGDATRDPGPEP [PSD2]
Reply | 5.54

Ask | Same for VNVPGSFVCQCYSGYALAEDGKRC [MATN2]
Reply | 2.75

###

# Procedure text: protein stability index of a GFP-peptide fusion (GPS, HEK-293T) (PSI 1-6); higher = more stable
# Experimental conditions: treatment: MLN4924 1 uM, 8 h; c terminus: a fixed tail appended
# label = true if protein stability index >= 3 else false

Ask | State whether the measured protein stability index reaches 3, counting equality as reaching it, for QTMLSHYRPFYVNKGNGIGSNEAP [TRIM29]
Reply | true

Ask | Same for TVAMSTLNFCGPNVINHFYCDLPQ [OR3A1]
Reply | false

Ask | Same for WYWHGDVNSNKVVMSGVKCSGTEL [LOXL2]
Reply | false

Ask | Same for HCNLFVYSSSKGSLRLCDMRAAAL [PPP2R2C]
Reply | false

Ask | Same for FFCEGVKIIFRVGLVLLKHALGSP [TBC1D10A]
Reply | false

Ask | Same for GAEPSAPGGGGSPGACPALGTKSC [RTN3]
Reply | true

Ask | Same for RPTSCWQLDWDELETNQQHFHALC [M1AP]
Reply | false

###

# Procedure text: protein stability index of a GFP-peptide fusion (GPS, HEK-293T) (PSI 1-6); higher = more stable
# Experimental conditions: treatment: DMSO; c terminus: a fixed tail appended
# label = 1 (yes) if protein stability index >= 3 else 0 (no)

Ask | State whether the measured protein stability index reaches 3, counting equality as reaching it, for KDGNTPLHVAARYGHELLINTLIT [ANKRD44]
Reply | 0 (no)

Ask | Same for IREDEVHRLGSPYGHCTAGGEGVE [SCNN1D]
Reply | 1 (yes)

Ask | Same for EKMKKRKMSNSFHGIRPPQLEQPE [RHOBTB3]
Reply | 1 (yes)

Ask | Same for EILTLLQGVHQGAGFQDIPKRCLK [TSN]
Reply | 0 (no)

Ask | Same for MLGFRPYRFYFYMWKFVSPLCMAV [SLC6A17]
Reply | 0 (no)

Ask | Same for YQLLATHVPTVWAIDQYRVCQEVL [RHOBTB1]
Reply | 0 (no)

Ask | Same for PYKWVVEAANLLIPAVGSSLSEAL [MYBL2]
Reply | 0 (no)

Ask | Same for LSFEQMTDAHVWNKSVTLYTVKDK [NLN]
Reply | 0 (no)

Ask | Same for PDCLRACQEQIEALLESSLRQAQQ [CCND1]
Reply | 1 (yes)

Ask | Same for SQLSMKASLENSLEETKGRYCMQL [KRT16]
Reply | 1 (yes)

Ask | Same for LENTYRDFWLMVWEQKVLVIVMTT [PTPN9]
Reply | 0 (no)

Ask | Same for QTEKTTRVRTVLNEKQLHTLRTCY [ISL2]
Reply | 0 (no)

Ask | Same for FFCEGVKIIFRVGLVLLKHALGSP [TBC1D10A]
Reply | 0 (no)

Ask | Same for KDMATGKSKGYGFVSFFNKWDAEN [TIA1]
Reply | 0 (no)

Ask | Same for EVDAAPPVDLNKILEDMRCQYEAL [KRT36]
Reply | 1 (yes)

Ask | Same for DDIARIYQPKRYALSPKTTITMAH [FAM98B]
Reply | 0 (no)

Ask | Same for GRKFLQKHLNASNPTEPATIIFTA [TOR1AIP2]
Reply | 0 (no)

Ask | Same for EEYPGITAEDSNDIYILPSDNSGQ [BCL2L13]
Reply | 1 (yes)

Ask | Same for ALTRLERHLERKAWVANFERPRMN [CRY1]
Reply | 0 (no)

Ask | Same for LPEKPVKLASHTRDTTGVSQMFPS [FBF1]
Reply | 1 (yes)

Ask | Same for LGANEVLLVVGGFGSQQSPIDVVE [KLHL12]
Reply | 0 (no)

Ask | Same for PMDVYETGIEYIVAQGPTNQGLNV [ADAMTSL2]
Reply | 1 (yes)

Ask | Same for VKTSVPSSKSSGDLVDLFDGTSQS [CLINT1]
Reply | 1 (yes)

Ask | Same for FKSLFGSIGDIESCKLVRDKITGQ [ELAVL3]
Reply | 0 (no)
